Target: T1, Ep-CAM (UniProt P16422 24-265, limits assumed)
T1 construct: Antigen of the Biacore analysis of ING-1 variants
T1 sequence (looked up): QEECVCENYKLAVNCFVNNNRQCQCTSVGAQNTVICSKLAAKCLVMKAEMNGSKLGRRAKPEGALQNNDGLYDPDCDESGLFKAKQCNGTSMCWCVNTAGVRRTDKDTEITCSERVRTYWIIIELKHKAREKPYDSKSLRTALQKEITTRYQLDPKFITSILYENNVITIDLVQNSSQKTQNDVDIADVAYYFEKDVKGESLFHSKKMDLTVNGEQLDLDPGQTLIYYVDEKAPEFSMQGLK
Experiment: Biacore, Fab periplasmic extract

| BINDER | binding result |
| --- | --- |
| ING-1 heavy chain T28Q (Fab, V domains shown) VH: QIQLVQSGPELKKPGETVKISCKASGYQFTKYGMNWVKQAPGKGLKWMGWINTYTEEPTYGDDFKGRFAFSLETSASTANLQINNLKSEDTATYFCARFGSAVDYWGQGTSVTVSS VL: DIVMTQAAFSNPVTLGTSGSISCRSSKSLLHSNGITYLYWYLQKPGQSPQLLIYQMSNLASGVPDRFSSSGSGTDFTLRISRVEAEDVGVYYCAQNLELPRTFGGGTKLEMKR | no binding |
| ING-1 heavy chain D104W (Fab, V domains shown) VH: QIQLVQSGPELKKPGETVKISCKASGYTFTKYGMNWVKQAPGKGLKWMGWINTYTEEPTYGDDFKGRFAFSLETSASTANLQINNLKSEDTATYFCARFGSAVWYWGQGTSVTVSS VL: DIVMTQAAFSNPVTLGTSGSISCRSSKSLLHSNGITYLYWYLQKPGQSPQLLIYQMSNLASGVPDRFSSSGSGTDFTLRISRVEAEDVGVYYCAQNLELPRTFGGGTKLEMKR | no binding |
| ING-1 heavy chain N52W (Fab, V domains shown) VH: QIQLVQSGPELKKPGETVKISCKASGYTFTKYGMNWVKQAPGKGLKWMGWIWTYTEEPTYGDDFKGRFAFSLETSASTANLQINNLKSEDTATYFCARFGSAVDYWGQGTSVTVSS VL: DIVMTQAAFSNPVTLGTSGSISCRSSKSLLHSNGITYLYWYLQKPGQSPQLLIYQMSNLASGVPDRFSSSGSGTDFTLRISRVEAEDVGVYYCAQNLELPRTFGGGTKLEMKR | no binding |
